The values you see were collected from the supplement of paper PMC11208160.

Experiment: recombinant barcode read abundance after kanamycin selection (control-corrected) (log10(CPM+1)); higher = more efficient recombination; sequences stand for … in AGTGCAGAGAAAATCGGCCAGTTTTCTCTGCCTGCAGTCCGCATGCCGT…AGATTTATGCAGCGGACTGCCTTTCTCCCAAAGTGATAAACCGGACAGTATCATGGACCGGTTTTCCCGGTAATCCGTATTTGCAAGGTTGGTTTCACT; site = the 11-nt target
# thresholds on recombinant barcode read abundance (log10) define classes: Low (below 0.04), Mid (0.04 to below 0.3), High (0.3 or more)

Previously resolved entries follow.
- monomer-sequence: "AGCCTGTCTTGGGTTCTAACCTGTTGCCT (site AGCCTGCCTAG)"
  class: "Low"
- monomer-sequence: "ATGCACGCTTGGGTTCTAACCTGTTGCCT (site TATATGACTCC)"
  class: "Low"
- monomer-sequence: "AGACCCTCTTGGGTTCTAACCTGTTGCCT (site CGACCCTCTAG)"
  class: "High"

Ask: Assign a category based on measured recombinant barcode read abundance (log10) for TTGCGAACTTGGGTTCTAACCTGTTGCCT (site TTGCAAACTAG) and give only the class name.
Reply: Mid

Ask: Sort into band: GAACGACCTTGGGTTCTAACCTGTTGCCT (site CAACGACCTAG)
Reply: Low

Ask: Which recombinant barcode read abundance (log10) category applies to TGTAGGACTTGGGTTCTAACCTGTTGCCT (site GGTAGGACTAG) here?
Reply: Low

Ask: Please report the category associated with GCGGCTTCTTGGGTTCTAACCTGTTGCCT (site GCGGCTTCTAG) , nothing else.
Reply: High

Ask: Hello team, could you let me know which band the following sequence falls into: ACTAACACTTGGGTTCTAACCTGTTGCCT (site CCTAACACTAG)
Reply: Mid

Ask: Exercise: read the entry AATGCATCTTGGGTTCTAACCTGTTGCCT (site AATGCATCTAG) and state which class it falls under.
Reply: Mid

Ask: Which band does CTCCTAGCTTGGGTTCTAACCTGTTGCTT (site CTCCTAGCTAA) fall in?
Reply: Mid

###

Assay: recombinant barcode read abundance after kanamycin selection (control-corrected) (log10(CPM+1)); higher = more efficient recombination; sequences stand for … in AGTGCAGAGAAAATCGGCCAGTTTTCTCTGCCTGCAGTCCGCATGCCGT…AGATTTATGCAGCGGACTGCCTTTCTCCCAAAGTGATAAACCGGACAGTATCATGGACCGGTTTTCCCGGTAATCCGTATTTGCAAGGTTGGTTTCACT; site = the 11-nt target
readout-name: recombinant barcode read abundance (log10)

- monomer-sequence: "AGGTCCTCTTGGGTTCTAACCTGTTGCTT (site AGGTCCTCTAT)"
  experimental-result: 1.2
- monomer-sequence: "AGTCCTTCTTGGGTTCTAACCTGTTGCAT (site AGTCCTTCTAT)"
  experimental-result: 0.878
- monomer-sequence: "TCTGAAACTTGGGTTCTAACCTGTTGCTT (site TCTGAAACTAA)"
  experimental-result: 0.314
- monomer-sequence: "CTAGAGTCTTGGGTTCTAACCTGTTGCTT (site CTAGAGTCTAA)"
  experimental-result: 2.66

Give recombinant barcode read abundance (log10) for all sequences that follow.
1. CCTAAGACTTGGGTTCTAACCTGTTGCCG (site CCTAAGACTAG)
2. TACATCCCTTGGGTTCTAACCTGTTGCCA (site TACATCCCTGG)
3. GATCACCCTTGGGTTCTAACCTGTTGCAT (site GATCACCCTAT)
4. ATAAGTCCTTGGGTTCTAACCTGTTGCCA (site ATAAGTCCTTG)
5. TGTCGACCTTGGGTTCTAACCTGTTGCCT (site AGTCGACCTAG)
6. AGCCACCCTTGGGTTCTAACCTGTTGCCT (site AGCCACACTAG)

Reply:
1: 0.343; 2: 0.0594; 3: 1.68; 4: 0.582; 5: 0.596; 6: 0.201

###

Kindly supply the reported recombinant UMI read abundance (log10) values for the records listed here.
Experiment: recombinant UMI read abundance after kanamycin selection (control-corrected) (log10(CPM+1)); higher = more efficient recombination; extreme values may be limits of the assay; sequences stand for … in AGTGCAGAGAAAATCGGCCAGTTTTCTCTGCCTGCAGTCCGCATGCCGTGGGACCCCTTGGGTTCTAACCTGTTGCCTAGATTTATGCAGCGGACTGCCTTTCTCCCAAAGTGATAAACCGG…AGGTTGGTTTCACT; site = the 11-nt donor
Give bare numbers.

Worked cases, answers included:
- monomer-sequence: "GTATCAACATGGACCGGTTTTCCCGGTAATCCGTATTTGAA (site GTATCAACTTT)"
  recombinant UMI read abundance (log10): 1.01
- monomer-sequence: "TAATGAGCATGGACCGGTTTTCCCGGTAATCCGTATTTGGG (site TAATGGGCTCC)"
  recombinant UMI read abundance (log10): 0.0142
- monomer-sequence: "ATATCATCATGGACCGGTTTTCCCGGTAATCCGTATTTGCG (site ATATCATCTCG)"
  recombinant UMI read abundance (log10): 2.11
- monomer-sequence: "TGCTCCGCATGGACCGGTTTTCCCGGTAATCCGTATTTGTG (site TGCTCCGCTCA)"
  recombinant UMI read abundance (log10): 0.265
- monomer-sequence: "CCCCACACATGGACCGGTTTTCCCGGTAATCCGTATTTGTA (site CTCCACACTTA)"
  recombinant UMI read abundance (log10): 0.113

Here are 6 sequences. What values of recombinant UMI read abundance (log10) were reported for them?
1. AAGTCTACATGGACCGGTTTTCCCGGTAATCCGTATTTGTA (site AAGTCTACTTA)
2. ATAGCTACATGGACCGGTTTTCCCGGTAATCCGTATTTGCG (site ATAGCTACTCG)
3. CGTTTGGCATGGACCGGTTTTCCCGGTAATCCGTATTTGCT (site CGTTGGGCTAG)
4. CGTACATCATGGACCGGTTTTCCCGGTAATCCGTATTTGCT (site CGTACATCTAG)
5. CGGAATACATGGACCGGTTTTCCCGGTAATCCGTATTTGTT (site CGGAATGCTAA)
6. ACTAGAACATGGACCGGTTTTCCCGGTAATCCGTATTTGAT (site ACTAGAACTGT)

Reply:
[0.646, 2.1, 0, 1.39, 0, 0]

Could I get recombinant UMI read abundance (log10) for every one of these entries?
1. TGGGCGGCATGGACCGGTTTTCCCGGTAATCCGTATTTGGC (site TGGCCGGCTGC)
2. CACTCCTCATGGACCGGTTTTCCCGGTAATCCGTATTTGCC (site CACTACTCTGG)
3. TAAATTCCATGGACCGGTTTTCCCGGTAATCCGTATTTGTA (site TAAAATCCTTA)
4. GTAGGTACATGGACCGGTTTTCCCGGTAATCCGTATTTGAA (site GTAGGTACTTT)
5. GTTGGCCCATGGACCGGTTTTCCCGGTAATCCGTATTTGAG (site GTTGGCCCTCT)
6. TGGCATCCATGGACCGGTTTTCCCGGTAATCCGTATTTGTT (site CGGAATCCTAA)
7. CGATTATCATGGACCGGTTTTCCCGGTAATCCGTATTTGCT (site CGATGATCTAG)

Reply:
1: 0; 2: 1.17; 3: 0.00321; 4: 1.75; 5: 0.0112; 6: 0; 7: 0

###

Test: recombinant UMI read abundance after kanamycin selection (control-corrected) (log10(CPM+1)); higher = more efficient recombination; extreme values may be limits of the assay; sequences stand for … in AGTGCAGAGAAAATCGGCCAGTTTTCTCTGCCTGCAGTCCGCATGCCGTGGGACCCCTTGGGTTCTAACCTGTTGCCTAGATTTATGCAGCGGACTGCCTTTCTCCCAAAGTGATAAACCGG…AGGTTGGTTTCACT; site = the 11-nt donor
readout-name: recombinant UMI read abundance (log10)
Numbers only.

Consider the following illustrative entries.
- monomer-sequence: "TTACGTGCATGGACCGGTTTTCCCGGTAATCCGTATTTGTA (site TTACGTGCTTA)"
  experimental-result: 1.51
- monomer-sequence: "ACATATACATGGACCGGTTTTCCCGGTAATCCGTATTTGTG (site ACATTTACTCA)"
  experimental-result: 0.0115
- monomer-sequence: "AGTTCGACATGGACCGGTTTTCCCGGTAATCCGTATTTGAC (site AGTTCGACTGT)"
  experimental-result: 0.845
- monomer-sequence: "CGATGTTCATGGACCGGTTTTCCCGGTAATCCGTATTTGTC (site CGATGTTCTGA)"
  experimental-result: 2.98
- monomer-sequence: "AGGAATCCATGGACCGGTTTTCCCGGTAATCCGTATTTGCT (site AGGAATCCTAG)"
  experimental-result: 0
- monomer-sequence: "ATCTCTGCATGGACCGGTTTTCCCGGTAATCCGTATTTGCT (site ATCTCTGCTAG)"
  experimental-result: 1.73
- monomer-sequence: "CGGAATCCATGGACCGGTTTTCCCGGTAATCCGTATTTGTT (site CTGCATCCTAA)"
  experimental-result: 0.0146
- monomer-sequence: "GCATGGCCATGGACCGGTTTTCCCGGTAATCCGTATTTGCA (site GAATGGCCTTG)"
  experimental-result: 0

Could I get recombinant UMI read abundance (log10) for every one of these entries?
1. TGGAGCGCATGGACCGGTTTTCCCGGTAATCCGTATTTGGG (site TGGAGCGCTCC)
2. GTGAAGGCATGGACCGGTTTTCCCGGTAATCCGTATTTGTG (site GTGAAGGCTCA)
3. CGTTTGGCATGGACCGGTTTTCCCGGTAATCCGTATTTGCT (site CGTTTAGCTAG)

Reply:
1. 0.0132
2. 2.12
3. 0

Give one value of recombinant UMI read abundance (log10) per listed sequence.
1. CGGGCATCATGGACCGGTTTTCCCGGTAATCCGTATTTGCT (site CGGTCATCTAG)
2. CGATCCACATGGACCGGTTTTCCCGGTAATCCGTATTTGTT (site CGATCGACTAA)
3. CTTTAAACATGGACCGGTTTTCCCGGTAATCCGTATTTGTA (site CTTTAAACTTA)
4. TTCATGACATGGACCGGTTTTCCCGGTAATCCGTATTTGCG (site TTCATGACTCG)

Reply:
1: 0; 2: 0.00891; 3: 1.06; 4: 0

Parameters: items (list). Returns: recombinant UMI read abundance (log10) for each item.
1. ATTGAGGCATGGACCGGTTTTCCCGGTAATCCGTATTTGGT (site ATTGAGCCTAC)
2. AATTATGCATGGACCGGTTTTCCCGGTAATCCGTATTTGGA (site AATTAAGCTTC)
3. TGCTTGGCATGGACCGGTTTTCCCGGTAATCCGTATTTGGT (site TGCTAGGCTAC)

Reply:
[0.486, 0.54, 0.011]
